# Tested on: PANC-1 complex spheroid growth, percent test/control
# measurementDescription: Anticancer human tumor PANC-1 cell line growth inhibition [Asc];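 also: spheroids exposed to agents for 7 days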;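 as to viability, T/C: percent viability relative to DMSO vehicle wells taken as 100%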
# measurementParameters: second compound 0.01 µM; first compound 10 µM; stronger effect = lower value
# From the text: Multicellular complex tumor spheroid response to apoptosis pathway targeting inhibitors Alrizomadlin, Pelcitoclax, and Dasminapant in combination with a variety of drugs and investigational agents in selected tumor cell lines […] Compounds. […] If the clinical Cmax for an agent had not been determined, the highest concentration tested was 10 microM. […]
measurementKind: viability, T/C (%)
Give bare numbers, in %.

• C=CC(=O)N1CCN(c2nc(=O)n(-c3c(C)ccnc3C(C)C)c3nc(-c4c(O)cccc4F)c(F)cc23)C(C)C1 (centres undefined) + CNC(C)C(=O)NC1CN(S(=O)(=O)c2cccc(S(=O)(=O)N3CCC4CCC(C(=O)NC(c5ccccc5)c5ccccc5)N4C(=O)C(NC(=O)C(C)NC)C3)c2)CCC2CCC(C(=O)NC(c3ccccc3)c3ccccc3)N2C1=O = 95
• C=C(F)C(=O)N1CCN(c2nc(OCC3CCCN3C)nc3c2CCN(c2cccc4cccc(Cl)c24)C3)CC1CC#N (centres undefined) + CNC(C)C(=O)NC1CN(S(=O)(=O)c2cccc(S(=O)(=O)N3CCC4CCC(C(=O)NC(c5ccccc5)c5ccccc5)N4C(=O)C(NC(=O)C(C)NC)C3)c2)CCC2CCC(C(=O)NC(c3ccccc3)c3ccccc3)N2C1=O = 6.24
• O=C(c1cc(Cc2n[nH]c(=O)c3ccccc23)ccc1F)N1CCN(C(=O)C2CC2)CC1 + CNC(C)C(=O)NC1CN(S(=O)(=O)c2cccc(S(=O)(=O)N3CCC4CCC(C(=O)NC(c5ccccc5)c5ccccc5)N4C(=O)C(NC(=O)C(C)NC)C3)c2)CCC2CCC(C(=O)NC(c3ccccc3)c3ccccc3)N2C1=O = 98.4

Task: Tell me its viability, T/C given C#Cc1c(F)ccc2cc(O)cc(-c3ncc4c(N5CC6CCC(C5)N6)nc(OCC56CCCN5CC(F)C6)nc4c3F)c12 (centres undefined) + CNC(C)C(=O)NC1CN(S(=O)(=O)c2cccc(S(=O)(=O)N3CCC4CCC(C(=O)NC(c5ccccc5)c5ccccc5)N4C(=O)C(NC(=O)C(C)NC)C3)c2)CCC2CCC(C(=O)NC(c3ccccc3)c3ccccc3)N2C1=O as the entry.
Result: 78.7

====

Can you tell me IC50 for the items I'm about to list?
# System: PANC-1 complex spheroid growth, percent test/control
# measurementDescription: Anticancer human tumor PANC-1 cell line growth inhibition [Asc];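 also: spheroids exposed to agents for 7 days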
# measurementParameters: curve of first compound; second compound 0.3 µM

Worked cases, IC50 given:
* CNC(C)C(=O)NC1CN(S(=O)(=O)c2cccc(S(=O)(=O)N3CCC4CCC(C(=O)NC(c5ccccc5)c5ccccc5)N4C(=O)C(NC(=O)C(C)NC)C3)c2)CCC2CCC(C(=O)NC(c3ccccc3)c3ccccc3)N2C1=O (centres undefined) + CCN1C(C(=O)NC23CCC(C(=O)O)(CC2)CC3)C(c2cccc(Cl)c2F)C2(C(=O)Nc3cc(Cl)ccc32)C12CCCCC2 | > 1000 nM
* O=C(c1cc(Cc2n[nH]c(=O)c3ccccc23)ccc1F)N1CCN(C(=O)C2CC2)CC1 + CCN1C(C(=O)NC23CCC(C(=O)O)(CC2)CC3)C(c2cccc(Cl)c2F)C2(C(=O)Nc3cc(Cl)ccc32)C12CCCCC2 | > 10000 nM

Give IC50 for each listed item.
1. Cc1nc(N2CCC3(CC2)COC(C)C3N)c(CO)nc1Sc1ccnc(N)c1Cl (centres undefined) + CCN1C(C(=O)NC23CCC(C(=O)O)(CC2)CC3)C(c2cccc(Cl)c2F)C2(C(=O)Nc3cc(Cl)ccc32)C12CCCCC2
2. NC(=O)C(=Cn1cnc(-c2cc(C(F)(F)F)cc(C(F)(F)F)c2)n1)c1cncnc1 + CCN1C(C(=O)NC23CCC(C(=O)O)(CC2)CC3)C(c2cccc(Cl)c2F)C2(C(=O)Nc3cc(Cl)ccc32)C12CCCCC2
3. Cn1ncnc1[C@H]1c2n[nH]c(=O)c3cc(F)cc(c23)N[C@@H]1c1ccc(F)cc1 + CCN1C(C(=O)NC23CCC(C(=O)O)(CC2)CC3)C(c2cccc(Cl)c2F)C2(C(=O)Nc3cc(Cl)ccc32)C12CCCCC2

Result:
> 3000 nM
> 300 nM
> 100 nM

Count: 4. Required value per item: IC50.
1. COc1c(OCCCN2CCOCC2)ccc2c3n(c(=NC(=O)c4cnc(N)nc4)nc12)CCN3 + CCN1C(C(=O)NC23CCC(C(=O)O)(CC2)CC3)C(c2cccc(Cl)c2F)C2(C(=O)Nc3cc(Cl)ccc32)C12CCCCC2
2. O=C(c1ccc(F)c(F)c1Nc1ccc(I)cc1F)N1CC(O)([C@@H]2CCCCN2)C1 + CCN1C(C(=O)NC23CCC(C(=O)O)(CC2)CC3)C(c2cccc(Cl)c2F)C2(C(=O)Nc3cc(Cl)ccc32)C12CCCCC2
3. C=C(F)C(=O)N1CCN(c2nc(OCC3CCCN3C)nc3c2CCN(c2cccc4cccc(Cl)c24)C3)CC1CC#N (centres undefined) + CCN1C(C(=O)NC23CCC(C(=O)O)(CC2)CC3)C(c2cccc(Cl)c2F)C2(C(=O)Nc3cc(Cl)ccc32)C12CCCCC2
4. NC1CCC(NC2CC2c2ccccc2)CC1 (centres undefined) + CCN1C(C(=O)NC23CCC(C(=O)O)(CC2)CC3)C(c2cccc(Cl)c2F)C2(C(=O)Nc3cc(Cl)ccc32)C12CCCCC2

Result:
306 nM
> 1000 nM
7250 nM
> 100 nM

====

# Test system: PANC-1 complex spheroid growth, percent test/control
# measurementDescription: Anticancer human tumor PANC-1 cell line growth inhibition [Asc];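 also: spheroids exposed to agents for 7 days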;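 as to viability, T/C: percent viability relative to DMSO vehicle wells taken as 100%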
# measurementParameters: second compound 0.949 µM; first compound 3.16 µM; stronger effect = lower value
Can you tell me viability, T/C for the items I'm about to list?
Numbers only, in %.

Use the examples below as a reference point.
• O=C(c1cc(Cc2n[nH]c(=O)c3ccccc23)ccc1F)N1CCN(C(=O)C2CC2)CC1 + CCN1C(C(=O)NC23CCC(C(=O)O)(CC2)CC3)C(c2cccc(Cl)c2F)C2(C(=O)Nc3cc(Cl)ccc32)C12CCCCC2 = 111
• C=C(F)C(=O)N1CCN(c2nc(OCC3CCCN3C)nc3c2CCN(c2cccc4cccc(Cl)c24)C3)CC1CC#N (centres undefined) + CCN1C(C(=O)NC23CCC(C(=O)O)(CC2)CC3)C(c2cccc(Cl)c2F)C2(C(=O)Nc3cc(Cl)ccc32)C12CCCCC2 = 97.1
• C=CC(=O)N1CCN(c2nc(=O)n(-c3c(C)ccnc3C(C)C)c3nc(-c4c(O)cccc4F)c(F)cc23)C(C)C1 (centres undefined) + CCN1C(C(=O)NC23CCC(C(=O)O)(CC2)CC3)C(c2cccc(Cl)c2F)C2(C(=O)Nc3cc(Cl)ccc32)C12CCCCC2 = 94.7

Let us move to another entry and its viability, T/C.
Task: For the molecule C#Cc1c(F)ccc2cc(O)cc(-c3ncc4c(N5CC6CCC(C5)N6)nc(OCC56CCCN5CC(F)C6)nc4c3F)c12 (centres undefined) + CCN1C(C(=O)NC23CCC(C(=O)O)(CC2)CC3)C(c2cccc(Cl)c2F)C2(C(=O)Nc3cc(Cl)ccc32)C12CCCCC2 , give its measured viability, T/C value.
Result: 93.7

====

# Test system: PANC-1 complex spheroid growth, percent test/control
# measurementDescription: Anticancer human tumor PANC-1 cell line growth inhibition [Asc];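 also: spheroids exposed to agents for 7 days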;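 as to viability, T/C: percent viability relative to DMSO vehicle wells taken as 100%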
# measurementParameters: second compound 10 µM; first compound 0.316 µM; stronger effect = lower value
measurementKind: viability, T/C (%)
Answers are plain numbers, in %.

Examples from the recorded data:
• C=CC(=O)N1CCN(c2nc(=O)n(-c3c(C)ccnc3C(C)C)c3nc(-c4c(O)cccc4F)c(F)cc23)C(C)C1 (stereo not drawn) + Cc1c(S(C)(=O)=O)c(-c2cc(F)cc(N3CCN(c4ccc(NS(=O)(=O)c5ccc(NC(CCN6CCC(C(=O)OCCCP(=O)(O)O)CC6)CSc6ccccc6)c(S(=O)(=O)C(F)(F)F)c5)cc4)CC3)c2)c(-c2ccc(Cl)cc2)n1C(C)C = 162
• C#Cc1c(F)ccc2cc(O)cc(-c3ncc4c(N5CC6CCC(C5)N6)nc(OCC56CCCN5CC(F)C6)nc4c3F)c12 (stereo not drawn) + Cc1c(S(C)(=O)=O)c(-c2cc(F)cc(N3CCN(c4ccc(NS(=O)(=O)c5ccc(NC(CCN6CCC(C(=O)OCCCP(=O)(O)O)CC6)CSc6ccccc6)c(S(=O)(=O)C(F)(F)F)c5)cc4)CC3)c2)c(-c2ccc(Cl)cc2)n1C(C)C = 101
• O=C(c1ccc(F)c(F)c1Nc1ccc(I)cc1F)N1CC(O)([C@@H]2CCCCN2)C1 + Cc1c(S(C)(=O)=O)c(-c2cc(F)cc(N3CCN(c4ccc(NS(=O)(=O)c5ccc(NC(CCN6CCC(C(=O)OCCCP(=O)(O)O)CC6)CSc6ccccc6)c(S(=O)(=O)C(F)(F)F)c5)cc4)CC3)c2)c(-c2ccc(Cl)cc2)n1C(C)C = 142
• CCN1CCN(Cc2ccc(Nc3ncc(F)c(-c4cc(F)c5nc(C)n(C(C)C)c5c4)n3)nc2)CC1 + Cc1c(S(C)(=O)=O)c(-c2cc(F)cc(N3CCN(c4ccc(NS(=O)(=O)c5ccc(NC(CCN6CCC(C(=O)OCCCP(=O)(O)O)CC6)CSc6ccccc6)c(S(=O)(=O)C(F)(F)F)c5)cc4)CC3)c2)c(-c2ccc(Cl)cc2)n1C(C)C = 168
• CNC(C)C(=O)NC1CN(S(=O)(=O)c2cccc(S(=O)(=O)N3CCC4CCC(C(=O)NC(c5ccccc5)c5ccccc5)N4C(=O)C(NC(=O)C(C)NC)C3)c2)CCC2CCC(C(=O)NC(c3ccccc3)c3ccccc3)N2C1=O (stereo not drawn) + Cc1c(S(C)(=O)=O)c(-c2cc(F)cc(N3CCN(c4ccc(NS(=O)(=O)c5ccc(NC(CCN6CCC(C(=O)OCCCP(=O)(O)O)CC6)CSc6ccccc6)c(S(=O)(=O)C(F)(F)F)c5)cc4)CC3)c2)c(-c2ccc(Cl)cc2)n1C(C)C = 185
• COc1c(OCCCN2CCOCC2)ccc2c3n(c(=NC(=O)c4cnc(N)nc4)nc12)CCN3 + Cc1c(S(C)(=O)=O)c(-c2cc(F)cc(N3CCN(c4ccc(NS(=O)(=O)c5ccc(NC(CCN6CCC(C(=O)OCCCP(=O)(O)O)CC6)CSc6ccccc6)c(S(=O)(=O)C(F)(F)F)c5)cc4)CC3)c2)c(-c2ccc(Cl)cc2)n1C(C)C = 52.5
• C=C(F)C(=O)N1CCN(c2nc(OCC3CCCN3C)nc3c2CCN(c2cccc4cccc(Cl)c24)C3)CC1CC#N (stereo not drawn) + Cc1c(S(C)(=O)=O)c(-c2cc(F)cc(N3CCN(c4ccc(NS(=O)(=O)c5ccc(NC(CCN6CCC(C(=O)OCCCP(=O)(O)O)CC6)CSc6ccccc6)c(S(=O)(=O)C(F)(F)F)c5)cc4)CC3)c2)c(-c2ccc(Cl)cc2)n1C(C)C = 189

// switching to the query compound
Task: Item O=C(c1cc(Cc2n[nH]c(=O)c3ccccc23)ccc1F)N1CCN(C(=O)C2CC2)CC1 + Cc1c(S(C)(=O)=O)c(-c2cc(F)cc(N3CCN(c4ccc(NS(=O)(=O)c5ccc(NC(CCN6CCC(C(=O)OCCCP(=O)(O)O)CC6)CSc6ccccc6)c(S(=O)(=O)C(F)(F)F)c5)cc4)CC3)c2)c(-c2ccc(Cl)cc2)n1C(C)C : provide viability, T/C
Result: 187
